Biological target: Stromelysin-1 (Homo sapiens, UniProt P08254)
Sequence (P08254 100-477, species assumed): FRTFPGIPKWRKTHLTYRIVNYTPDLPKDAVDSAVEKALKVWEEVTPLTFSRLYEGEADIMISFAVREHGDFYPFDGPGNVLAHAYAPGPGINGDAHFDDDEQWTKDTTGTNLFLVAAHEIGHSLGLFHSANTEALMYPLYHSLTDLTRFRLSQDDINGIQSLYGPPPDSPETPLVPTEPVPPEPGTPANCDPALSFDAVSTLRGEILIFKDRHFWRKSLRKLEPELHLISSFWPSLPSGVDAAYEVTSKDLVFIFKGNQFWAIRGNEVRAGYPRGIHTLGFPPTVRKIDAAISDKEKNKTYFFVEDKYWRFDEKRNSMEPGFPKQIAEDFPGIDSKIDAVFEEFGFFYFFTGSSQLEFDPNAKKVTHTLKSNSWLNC
Assay: Enzyme inhibition assay with fluorogenic peptide substrate, stromelysin-1
Format: biochemical
Conditions: Ki (app) assumed to approximate true Ki
Ki for assorted compounds
Expressed in nM, but write only the number.

CC(C)(S)[C@@H](NC(=O)[C@H](CCCc1ccc(Cl)cc1)CC(=O)NO)C(N)=O ... 3.6
CNC(=O)[C@H](NC(=O)[C@H](CCCc1ccc(Cl)cc1)CC(=O)NO)C(C)(C)SC ... 5.3

Now take the following compound into account.
Asked: Request: Ki, test system Stromelysin-1 (Homo sapiens, UniProt P08254), entry CNC(=O)[C@H](NC(=O)[C@H](CCCc1ccc(Cl)cc1)CC(=O)NO)C(C)(C)S(C)(=O)=O
Given back: 5.92
